Tgt: T1, hPRLR.mmh (soluble monomeric human PRLR) (Homo sapiens, UniProt P16471)
T1 construct: soluble monomeric (hPRLR.mmh); mmh (myc-myc-hexahistidine)
Procedure details: Surface plasmon resonance (Biacore T200), mAb-capture format
Format: binding
Experimental conditions: 25° C., antibody-capture format, analyte hPRLR.mmh
Experimental: Antibodies, expressed as human IgG1 Fc “[…]” designations), were captured onto an anti-human Fc sensor surface (mAb-capture format), and soluble monomeric (hPRLR.mmh; SEQ ID NO:401, or macaca fascicularis (mf) PRLR.mmh; SEQ ID NO:403) or dimeric (hPRLR.mFc; SEQ ID NO:402) PRLR protein was injected over the sensor surface. Measurements were conducted on a T200 Biacore instrument. […]
Readout kind: T½ (min)
Quick reminder: number only, in min, skip the unit.

Data request: Could you tell me which T½ is on file for H1H6966N: human IgG1 Fc form of H2M6966N; anti-PRLR; HCVR/LCVR SEQ ID NOs 338/346 (antibody, V domains shown, human IgG1 Fc) VH: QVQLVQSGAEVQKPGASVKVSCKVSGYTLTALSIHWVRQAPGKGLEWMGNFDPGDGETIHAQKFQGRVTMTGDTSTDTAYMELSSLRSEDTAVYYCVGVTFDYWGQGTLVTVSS VL: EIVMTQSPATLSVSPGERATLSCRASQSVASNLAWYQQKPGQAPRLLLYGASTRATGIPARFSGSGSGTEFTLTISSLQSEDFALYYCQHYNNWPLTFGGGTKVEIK ?
Data returned: 44.9

Data request: Could you tell me which T½ is on file for H1H6960N: human IgG1 Fc form of H2M6960N; anti-PRLR; HCVR/LCVR SEQ ID NOs 322/330 (antibody, V domains shown, human IgG1 Fc) VH: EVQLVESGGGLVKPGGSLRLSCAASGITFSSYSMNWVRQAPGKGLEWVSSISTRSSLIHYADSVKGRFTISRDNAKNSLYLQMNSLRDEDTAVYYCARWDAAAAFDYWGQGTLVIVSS VL: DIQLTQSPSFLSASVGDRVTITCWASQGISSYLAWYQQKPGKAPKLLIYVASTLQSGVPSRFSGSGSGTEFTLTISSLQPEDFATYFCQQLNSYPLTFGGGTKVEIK ?
Data returned: 15.8

Data request: Could you tell me which T½ is on file for H1H6804P: anti-PRLR antibody, human IgG1 Fc; HCVR/LCVR SEQ ID NOs 242/250 (antibody, V domains shown, human IgG1 Fc) VH: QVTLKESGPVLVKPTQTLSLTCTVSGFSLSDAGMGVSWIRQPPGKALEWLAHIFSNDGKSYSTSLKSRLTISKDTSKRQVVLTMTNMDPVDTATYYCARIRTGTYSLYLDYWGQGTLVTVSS VL: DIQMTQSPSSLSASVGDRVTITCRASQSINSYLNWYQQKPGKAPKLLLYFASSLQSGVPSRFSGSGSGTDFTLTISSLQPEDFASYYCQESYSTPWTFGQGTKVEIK ?
Data returned: 18

Data request: Could you tell me which T½ is on file for H1H6795P: anti-PRLR antibody, human IgG1 Fc; HCVR/LCVR SEQ ID NOs 162/170 (antibody, V domains shown, human IgG1 Fc) VH: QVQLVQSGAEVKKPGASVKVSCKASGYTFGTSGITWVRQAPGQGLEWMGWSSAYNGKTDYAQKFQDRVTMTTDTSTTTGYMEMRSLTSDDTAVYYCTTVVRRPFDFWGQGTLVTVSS VL: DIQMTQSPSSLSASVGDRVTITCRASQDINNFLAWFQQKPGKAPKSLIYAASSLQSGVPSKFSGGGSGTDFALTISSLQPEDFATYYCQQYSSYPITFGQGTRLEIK ?
Data returned: 7
